// provenance: ChEMBL document CHEMBL3217622

Quick note: these are IC50 numbers for system: ALK tyrosine kinase receptor (Homo sapiens, UniProt Q9UM73)
Sequence (Q9UM73 whole entry): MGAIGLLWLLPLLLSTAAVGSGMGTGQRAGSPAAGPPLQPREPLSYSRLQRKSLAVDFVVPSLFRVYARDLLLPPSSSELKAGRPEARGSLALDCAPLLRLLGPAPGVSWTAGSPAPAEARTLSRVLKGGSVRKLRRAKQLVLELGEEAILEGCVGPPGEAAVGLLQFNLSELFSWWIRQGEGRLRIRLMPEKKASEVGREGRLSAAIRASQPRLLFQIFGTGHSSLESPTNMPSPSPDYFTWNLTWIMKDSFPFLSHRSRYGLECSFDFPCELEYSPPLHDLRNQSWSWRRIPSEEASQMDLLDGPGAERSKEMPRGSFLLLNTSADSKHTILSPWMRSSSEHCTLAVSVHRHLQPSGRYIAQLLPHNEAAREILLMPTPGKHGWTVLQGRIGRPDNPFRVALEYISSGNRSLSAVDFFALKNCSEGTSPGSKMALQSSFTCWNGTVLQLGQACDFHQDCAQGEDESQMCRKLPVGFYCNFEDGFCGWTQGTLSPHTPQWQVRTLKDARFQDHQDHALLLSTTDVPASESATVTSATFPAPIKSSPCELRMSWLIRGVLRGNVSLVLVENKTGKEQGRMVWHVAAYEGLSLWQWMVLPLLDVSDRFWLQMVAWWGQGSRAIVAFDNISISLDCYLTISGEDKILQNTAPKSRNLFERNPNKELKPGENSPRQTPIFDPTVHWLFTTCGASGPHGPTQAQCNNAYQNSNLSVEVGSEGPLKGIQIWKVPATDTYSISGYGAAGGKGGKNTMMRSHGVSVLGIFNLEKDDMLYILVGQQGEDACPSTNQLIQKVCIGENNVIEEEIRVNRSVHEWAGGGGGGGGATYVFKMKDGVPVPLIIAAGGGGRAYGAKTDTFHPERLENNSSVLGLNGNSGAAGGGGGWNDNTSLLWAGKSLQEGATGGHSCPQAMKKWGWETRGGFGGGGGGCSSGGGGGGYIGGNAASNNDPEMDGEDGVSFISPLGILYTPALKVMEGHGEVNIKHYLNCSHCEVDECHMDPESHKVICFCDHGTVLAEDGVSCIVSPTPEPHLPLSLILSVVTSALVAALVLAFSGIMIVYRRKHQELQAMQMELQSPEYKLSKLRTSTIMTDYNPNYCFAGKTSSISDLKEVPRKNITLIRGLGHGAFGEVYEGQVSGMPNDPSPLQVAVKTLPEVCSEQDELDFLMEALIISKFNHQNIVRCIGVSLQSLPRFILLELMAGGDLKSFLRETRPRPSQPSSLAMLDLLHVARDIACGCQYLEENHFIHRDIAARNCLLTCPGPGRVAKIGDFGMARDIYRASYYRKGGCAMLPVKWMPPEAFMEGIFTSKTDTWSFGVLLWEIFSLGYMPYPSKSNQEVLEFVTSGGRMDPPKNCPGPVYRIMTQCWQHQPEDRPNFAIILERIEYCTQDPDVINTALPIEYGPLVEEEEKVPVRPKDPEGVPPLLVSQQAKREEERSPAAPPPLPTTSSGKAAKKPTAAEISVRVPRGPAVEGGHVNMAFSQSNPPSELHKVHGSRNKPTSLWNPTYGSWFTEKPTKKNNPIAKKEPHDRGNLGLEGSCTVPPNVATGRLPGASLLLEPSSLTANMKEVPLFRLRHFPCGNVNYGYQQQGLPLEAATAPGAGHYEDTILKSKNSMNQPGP

>>> df
                            molecule_smiles   result
0  NC(=O)[C@@H]1[C@H](Nc2ccnc3[nH]c(-c4ccc(N5CCOCC5)cc4)nc23)[C@H]2C=C[C@@H]1C2  > 10 µM

Now for the compound whose IC50 we want.
What does the data say about its IC50? Entry: "CN1CCN(c2ccc(-c3nc4c(N[C@H]5[C@@H](C(N)=O)[C@@H]6C=C[C@H]5C6)ccnc4[nH]3)cc2)CC1"
> 3 µM

* * *

- ASSAY INFO: AUC (0 to infinity) in rat at 1 mg/kg, iv
- Type: ADME, organism-based
- Design: dose 1 mg/kg, route intravenous, time infinity
- REPORTED CONDITIONS: plasma
OBSERVATION TYPE: AUC(0-inf) (ng·h/mL)

1: COc1cc(CN2CCN(C)CC2)ccc1-c1nc2c(N[C@H]3[C@@H](C(N)=O)[C@@H]4C=C[C@H]3C4)c(Cl)cnc2[nH]1
2: COc1cc(N2CCN(C)CC2)ccc1-c1nc2c(N[C@H]3[C@@H](C(N)=O)[C@@H]4C=C[C@H]3C4)c(Cl)cnc2[nH]1
3: COc1cc(N2CCC(N3CCOCC3)CC2)ccc1-c1nc2c(N[C@H]3[C@@H](C(N)=O)[C@@H]4C=C[C@H]3C4)c(Cl)cnc2[nH]1
Please list these compounds in decreasing order of AUC(0-inf). Quick reminder: the answer is the labels in the order asked.
3, 1, 2
(3: 1750 ng·h/mL, 1: 1140 ng·h/mL, 2: 416 ng·h/mL)

* * *

Quick reference: IC50 of the listed items.
- SYSTEM TESTED: UniProt P33261
- Sequence (P33261 whole entry): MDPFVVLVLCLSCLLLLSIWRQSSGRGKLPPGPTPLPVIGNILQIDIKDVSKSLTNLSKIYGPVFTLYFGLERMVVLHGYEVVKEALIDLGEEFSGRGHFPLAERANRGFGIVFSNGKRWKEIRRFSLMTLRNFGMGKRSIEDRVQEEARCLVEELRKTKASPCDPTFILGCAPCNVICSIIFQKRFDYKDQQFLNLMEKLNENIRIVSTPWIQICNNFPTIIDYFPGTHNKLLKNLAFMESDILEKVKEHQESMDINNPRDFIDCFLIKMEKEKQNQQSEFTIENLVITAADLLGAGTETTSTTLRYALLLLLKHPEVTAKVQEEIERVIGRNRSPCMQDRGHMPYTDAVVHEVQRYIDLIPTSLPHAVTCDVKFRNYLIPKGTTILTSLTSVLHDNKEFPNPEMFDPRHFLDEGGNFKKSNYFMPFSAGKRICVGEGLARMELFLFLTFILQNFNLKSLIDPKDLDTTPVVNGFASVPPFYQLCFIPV

>>> print(df.to_string())
                            molecule_smiles  observation_type   result
0  COc1cc(CN2CCOCC2)ccc1-c1nc2c(N[C@H]3[C@@H](C(N)=O)[C@@H]4C=C[C@H]3C4)c(Cl)cnc2[nH]1              IC50  > 30 µM

Lab note: need IC50 with UniProt P33261 for entry "COc1cc(N2CCN(C)CC2)ccc1-c1nc2c(N[C@H]3[C@@H](C(N)=O)[C@@H]4C=C[C@H]3C4)c(Cl)cnc2[nH]1" , please look it up.
> 30 µM

* * *

- SYSTEM TESTED: Cytochrome P450 2D6 (Homo sapiens, UniProt P10635)
- Sequence (P10635 whole entry): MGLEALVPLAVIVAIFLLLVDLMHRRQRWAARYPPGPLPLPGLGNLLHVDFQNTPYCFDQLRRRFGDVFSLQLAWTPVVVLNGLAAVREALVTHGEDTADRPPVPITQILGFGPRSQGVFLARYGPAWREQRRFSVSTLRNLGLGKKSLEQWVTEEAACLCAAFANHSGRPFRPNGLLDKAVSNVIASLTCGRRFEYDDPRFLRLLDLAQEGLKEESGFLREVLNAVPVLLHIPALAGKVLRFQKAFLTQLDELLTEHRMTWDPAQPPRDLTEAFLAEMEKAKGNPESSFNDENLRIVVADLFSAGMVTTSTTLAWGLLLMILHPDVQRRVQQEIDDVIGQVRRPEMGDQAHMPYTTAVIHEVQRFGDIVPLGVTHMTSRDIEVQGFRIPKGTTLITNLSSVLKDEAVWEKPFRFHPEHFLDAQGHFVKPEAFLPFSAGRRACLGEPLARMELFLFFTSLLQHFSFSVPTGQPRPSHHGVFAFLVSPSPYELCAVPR
OBSERVATION TYPE: IC50

Please provide the recorded IC50 for "COc1cc(CN2CCOCC2)ccc1-c1nc2c(N[C@H]3[C@@H](C(N)=O)[C@@H]4C=C[C@H]3C4)c(Cl)cnc2[nH]1" , tested on Cytochrome P450 2D6 (Homo sapiens, UniProt P10635).
> 30 µM

* * *

- ASSAY INFO: AUC (0 to infinity) in rat at 1 mg/kg, iv
- Format: ADME, organism-based
- Parameters: dose 1 mg/kg, route intravenous, time infinity
- REPORTED CONDITIONS: plasma
OBSERVATION TYPE: AUC(0-inf) (ng·h/mL)

I: COc1cc(CN2CCOCC2)ccc1-c1nc2c(N[C@H]3[C@@H](C(N)=O)[C@@H]4C=C[C@H]3C4)c(Cl)cnc2[nH]1
II: COc1cc(N2CCOCC2)ccc1-c1nc2c(N[C@H]3[C@@H](C(N)=O)[C@@H]4C=C[C@H]3C4)c(Cl)cnc2[nH]1
III: COc1cc(N2CCC(N3CCN(C)CC3)CC2)ccc1-c1nc2c(N[C@H]3[C@@H](C(N)=O)[C@@H]4C=C[C@H]3C4)c(Cl)cnc2[nH]1
Rank items: key AUC(0-inf), increasing. Respond with an ordered listing of the labels, as requested.
I, III, II
